- EXPERIMENTAL TARGET: T1, Human PAR-2 on cells (human, UniProt P55085 26-397)
- T1 construct: also called HEK-PAR-2 (#3); human PAR-2 transfected HEK293 cells
- T1 sequence: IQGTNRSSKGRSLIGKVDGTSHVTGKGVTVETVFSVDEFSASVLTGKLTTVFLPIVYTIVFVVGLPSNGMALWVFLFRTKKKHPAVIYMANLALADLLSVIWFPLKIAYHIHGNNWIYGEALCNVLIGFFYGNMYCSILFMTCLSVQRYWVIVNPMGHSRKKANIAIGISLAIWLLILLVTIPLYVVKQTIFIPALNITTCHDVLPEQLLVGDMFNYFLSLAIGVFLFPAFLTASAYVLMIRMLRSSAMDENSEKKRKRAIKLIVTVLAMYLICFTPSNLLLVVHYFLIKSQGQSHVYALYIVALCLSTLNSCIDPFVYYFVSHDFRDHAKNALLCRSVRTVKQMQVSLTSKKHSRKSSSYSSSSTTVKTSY
- MEASUREMENT PROTOCOL: binding of IgG4p to PAR-2 transfected HEK cells (HEK-PAR-2 #3)

BINDER	EC50 / nM
Ab5005 IgG4_Pro (antibody, V domains shown, IgG4_Pro (human IgG4 constant regions, Ser241Pro hinge), lambda; also called IgG4p Ab5005) VH: QVQLVESGGGLVQPGGSLRLSCAASGFTFSSYAMNWVRQAPGKGLEWVSTISYSSSATSYADSVKGRFTISRDNSKNTLYLQMNSLRAEDTAVYYCARIQNDPMDVWGQGTLVTVSS VL: DIELTQPPSVSVAPGQTARISCSGDNLGKKYVQWYQQKPGQAPVLVIYDDSNRPSGIPERFSGSNSGNTATLTISGTQAEDEADYYCQSWALVGSSESNVFGGGTKLTVLG	0.06
Ab5007 IgG4_Pro (antibody, V domains shown, IgG4_Pro (human IgG4 constant regions, Ser241Pro hinge), lambda; also called IgG4p Ab5007) VH: QVQLVESGGGLVQPGGSLRLSCAASGFTFSSYAMNWVRQAPGKGLEWVSAISFSGHLTGYADSVKGRFTISRDNSKNTLYLQMNSLRAEDTAVYYCARIQNDPMDVWGQGTLVTVSS VL: DIELTQPPSVSVAPGQTARISCSGDNLGKKYVQWYQQKPGQAPVLVIYDDSNRPSGIPERFSGSNSGNTATLTISGTQAEDEADYYCSSWDVGSDGWVFGGGTKLTVLG	0.5
Ab4994 IgG4_Pro (antibody, V domains shown, IgG4_Pro: variable regions fused to human IgG4 constant regions with Ser241Pro in the hinge, lambda light chain; also called IgG4p Ab4994) VH: QVQLVESGGGLVQPGGSLRLSCAASGFTFSSYAMNWVRQAPGKGLEWVSAISYSGHLTGYADSVKGRFTISRDNSKNTLYLQMNSLRAEDTAVYYCARIQNDPMDVWGQGTLVTVSS VL: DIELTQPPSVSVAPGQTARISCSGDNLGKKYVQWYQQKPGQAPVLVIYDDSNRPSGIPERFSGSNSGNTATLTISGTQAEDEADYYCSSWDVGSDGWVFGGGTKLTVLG	0.4
Ab5003 IgG4_Pro (antibody, V domains shown, IgG4_Pro (human IgG4 constant regions, Ser241Pro hinge), lambda; also called IgG4p Ab5003) VH: QVQLVESGGGLVQPGGSLRLSCAASGFTFSSYAMNWVRQAPGKGLEWVSAISYKGHLTGYADSVKGRFTISRDNSKNTLYLQMNSLRAEDTAVYYCARIQNDPMDVWGQGTLVTVSS VL: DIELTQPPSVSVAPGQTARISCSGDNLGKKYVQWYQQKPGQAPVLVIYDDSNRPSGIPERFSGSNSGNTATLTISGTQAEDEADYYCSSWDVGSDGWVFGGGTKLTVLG	0.46
Ab4997 IgG4_Pro (antibody, V domains shown, IgG4_Pro (human IgG4 constant regions, Ser241Pro hinge), lambda; also called IgG4p Ab4997) VH: QVQLVESGGGLVQPGGSLRLSCAASGFTFSSYAMNWVRQAPGKGLEWVSAISYNGKLKGYADSVKGRFTISRDNSKNTLYLQMNSLRAEDTAVYYCARIQNDPMDVWGQGTLVTVSS VL: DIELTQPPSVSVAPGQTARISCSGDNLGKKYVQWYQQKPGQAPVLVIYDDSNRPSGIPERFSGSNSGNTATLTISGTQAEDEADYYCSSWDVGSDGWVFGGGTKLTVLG	0.38
Ab4999 IgG4_Pro (antibody, V domains shown, IgG4_Pro (human IgG4 constant regions, Ser241Pro hinge), lambda; also called IgG4p Ab4999) VH: QVQLVESGGGLVQPGGSLRLSCAASGFTFSSYAMNWVRQAPGKGLEWVSTISYSSSATSYADSVKGRFTISRDNSKNTLYLQMNSLRAEDTAVYYCARIQNDPMDVWGQGTLVTVSS VL: DIELTQPPSVSVAPGQTARISCSGDNLGKKYVQWYQQKPGQAPVLVIYDDSNRPSGIPERFSGSNSGNTATLTISGTQAEDEADYYCQTWDYSSIRDETNVFGGGTKLTVLG	0.2
